# System: HEK-293 cells
# test.protocol: HEK-293 cytotoxicity detection (CellTiter-Glo)
# Type: cell-based
# particulars: Homo sapiens, 72 h, 72 h incubation, CellTiter-Glo luminescence, read-out: HEK293
readout.kind: IC50

# molecule, result
records = [
    ("COc1ccccc1C(=O)NCc1ccc(-c2nn3c(c2C(N)=O)Nc2ccc(N4CCN(CC5CCN(c6ccc(N7CCC(=O)NC7=O)cc6)CC5)CC4)cc2CC3)cc1C", "> 10 µM"),
    ("NC(=O)c1c(-c2ccc(Oc3ccccc3)cc2)nn2c1Nc1cc(C3CCN(CCCOc4ccc(NC5CCC(=O)NC5=O)cc4)CC3)ccc1CC2 (centres unmarked)", "0.417 µM"),
    ("Cc1cc(-c2nn3c(c2C(N)=O)Nc2ccc(N4CCN(CC5CCN(c6ccc(N7CCC(=O)NC7=O)cc6)CC5)CC4)cc2CC3)ccc1CNC(=O)c1ccn(C(C)(C)C)n1", "> 10 µM"),
    ("NC(=O)c1c(-c2ccc(C(=O)Nc3ccccn3)cc2)nn2c1Nc1ccc(N3CCN(CC4CCN(c5ccc(N6CCC(=O)NC6=O)cc5)CC4)CC3)cc1CC2", "> 10 µM"),
    ("Cc1cccc(NC(=O)c2ccc(-c3nn4c(c3C(N)=O)Nc3ccc(N5CCN(C6CC(c7ccc(N[C@@H]8CCC(=O)NC8=O)cc7)C6)CC5)cc3CC4)c(F)c2C)n1 (some centres unmarked)", "> 10 µM"),
]
